System: Pseudomonas aeruginosa
experiment-notes: Antibacterial activity against Pseudomonas aeruginosa PCOS12 by microdilution test
Type: functional
endpoint: MIC90

Recorded results for 2 substances are shown here.
H-WPKWWKWKRRWGRKKAKKRRG-NH2	64 µg/mL
H-RIVQRIKKWLLKWKKLGY-NH2	64 µg/mL

Continue with the substance presented below.
Entry H-GLLKKWLKKWKEFKRIVGY-NH2 : reported MIC90 = ?
64 µg/mL

* * *

Tested on: Klebsiella pneumoniae
experiment-notes: Antibacterial activity against Klebsiella pneumoniae PFAV3 by microdilution test
Format: functional
endpoint: MIC90

H-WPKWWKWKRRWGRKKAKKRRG-NH2	1020 µg/mL
H-GLLKKWLKKWKEFKRIVGY-NH2	128 µg/mL

Proceeding to the next substance to report its MIC90.
Suppose we examine the substance H-RIVQRIKKWLLKWKKLGY-NH2 ; what MIC90 value has been reported?
128 µg/mL

* * *

Catalogue of substances with associated MIC90
System: Acinetobacter sp.
experiment-notes: Antibacterial activity against Acinetobacter sp. PFAV1 clinical isolate expressing blaOXA-51, blaOXA-58 and blaPER gene by microdilution test
Format: functional

For orientation, consider the following solved cases.
H-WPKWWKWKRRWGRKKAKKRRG-NH2	64 µg/mL
H-RIVQRIKKWLLKWKKLGY-NH2	64 µg/mL

// next entry
Which value of MIC90 has been reported for H-GLLKKWLKKWKEFKRIVGY-NH2 in the records?
16 µg/mL

* * *

Test system: Enterococcus faecalis
experiment-notes: Antibacterial activity against Enterococcus faecalis ATCC 29212 by microdilution test
Format: functional
The reader will find reported MIC90 values listed item by item below.

Example entries begin here.
H-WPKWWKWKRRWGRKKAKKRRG-NH2	64 µg/mL
H-RIVQRIKKWLLKWKKLGY-NH2	128 µg/mL

Let's switch to this substance now.
Reported MIC90, substance H-GLLKKWLKKWKEFKRIVGY-NH2 : ____
128 µg/mL

* * *

Test system: Pseudomonas aeruginosa
experiment-notes: Antibacterial activity against Pseudomonas aeruginosa M7728 clinical isolate expressing blaIMP gene by microdilution test
Type: functional
Consider the following substances and their measured MIC90 readings.

Observe how each entry below is paired with its result.
H-GLLKKWLKKWKEFKRIVGY-NH2	64 µg/mL
H-RIVQRIKKWLLKWKKLGY-NH2	64 µg/mL

Any idea what MIC90 was measured for H-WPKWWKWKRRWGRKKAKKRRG-NH2 ?
128 µg/mL

* * *

Listed here: items and their measured MIC90.
System: Enterococcus faecalis
experiment-notes: Antibacterial activity against Enterococcus faecalis M4449 clinical isolate expressing vanA gene by microdilution test
Assay type: functional

Recorded results for 2 substances are shown here.
H-GLLKKWLKKWKEFKRIVGY-NH2	128 µg/mL
H-RIVQRIKKWLLKWKKLGY-NH2	128 µg/mL

--- query ---
For the substance H-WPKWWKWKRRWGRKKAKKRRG-NH2 , what MIC90 is on record?
128 µg/mL

* * *

Test system: Pseudomonas aeruginosa
experiment-notes: Antibacterial activity against Pseudomonas aeruginosa M13513 clinical isolate expressing blaKPC-2 gene by microdilution test
Format: functional
endpoint: MIC90

Record excerpt, results attached:
H-GLLKKWLKKWKEFKRIVGY-NH2	64 µg/mL
H-RIVQRIKKWLLKWKKLGY-NH2	64 µg/mL

// moving on: another record for MIC90
Field request: MIC90 | item: H-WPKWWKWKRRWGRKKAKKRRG-NH2
32 µg/mL
